tested-on: COX-2 (Homo sapiens)
Construct: purchased Cayman 560131
Sequence (P35354 18-604): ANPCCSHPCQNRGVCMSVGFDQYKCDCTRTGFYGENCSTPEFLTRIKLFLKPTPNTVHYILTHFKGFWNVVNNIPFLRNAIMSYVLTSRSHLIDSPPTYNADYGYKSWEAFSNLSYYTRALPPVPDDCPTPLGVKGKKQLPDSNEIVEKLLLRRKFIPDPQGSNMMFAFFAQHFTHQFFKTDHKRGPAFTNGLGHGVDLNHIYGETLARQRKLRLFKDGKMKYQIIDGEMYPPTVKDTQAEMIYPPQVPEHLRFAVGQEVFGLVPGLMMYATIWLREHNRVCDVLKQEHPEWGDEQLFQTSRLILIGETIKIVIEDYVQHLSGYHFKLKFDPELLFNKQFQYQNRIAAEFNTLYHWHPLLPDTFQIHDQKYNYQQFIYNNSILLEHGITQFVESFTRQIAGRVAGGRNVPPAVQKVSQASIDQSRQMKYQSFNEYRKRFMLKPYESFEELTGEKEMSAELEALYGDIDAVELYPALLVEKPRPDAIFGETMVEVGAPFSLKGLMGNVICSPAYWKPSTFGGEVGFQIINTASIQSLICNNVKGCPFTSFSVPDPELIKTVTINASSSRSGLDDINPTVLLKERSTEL
method: Cyclooxygenase COX-2 inhibitory assay (Cayman COX inhibitor assay kit)
Type: biochemical
test-settings: 2.5 µg/mL; mean ± SD, n=3; read-out: Percentage inhibition COX2
assay-metric: inhibition at 2.5 µg/mL (%)

* CC1=CCCC2C1(C)CCC(C)C2(C)CCC1=CC(=O)OC1O (centres unmarked) | 46.6
* C=C1CCCC2C1(C)CCC(C)C2(C)CCC1=CC(=O)OC1O (centres unmarked) | 48.8
* CC1=CCCC2C1(C)CCC(C)C2(C)CCC(C=O)=CC(=O)O (centres unmarked) | 10.7
* C=C1C(O)CCC2C1(C)CCC(C)C2(C)CCC1=CC(=O)OC1O (centres unmarked) | 36.8
* CC1=CCCC2C1(C)CCC(C)C2(C)CCC(=CC(=O)O)CO (centres unmarked) [Compound 2, 16-hydroxy-cleroda-3,13-dien-15-oic acid] | 34.5

Reference for the values: paper PMC7524750
